Measurement Notes: qHTS assay to identify small molecule antagonists of the estrogen receptor alpha (ER-alpha) signaling pathway using the BG1 cell line in the presence of 0.1 nM 17-beta-estradiol - cell viability counter screen (AID 1259241); further: nearly all actives have a fitted effect of over 40% in size
Test Settings: VM7Luc4E2 (BG1) viability, CellTiter-Fluor protease, 22 h, 0.1 nM estradiol agonist added; series mostly up to 92.4 µM
Inconclusive results are not listed. Activity calls are given as the source filed them. The call rests on the fitted dose curve; in most records, active means well fitted cell-killing curve with a large enough effect in the repeat runs; inconclusive means weak or mixed curves, or effect the other way; inactive means flat fitted curve, though single readings scatter.
Result Type: activity change, negative = cytotoxicity

> print(dat)
                             molecule                               result.type  readout.value
1         O=C1Nc2cc(Cl)ccc2Oc2ccccc21  activity change, negative = cytotoxicity       inactive
2     CCCCOc1cc(C(=O)OCCN(CC)CC)ccc1N  activity change, negative = cytotoxicity       inactive
3                NC(=S)N/N=C/c1cccnc1  activity change, negative = cytotoxicity       inactive
4  CCOc1cc(OCC)c(C(=O)CCC(=O)O)cc1OCC  activity change, negative = cytotoxicity       inactive
5                         Cc1ncsc1CCO  activity change, negative = cytotoxicity       inactive

Fill in the blank: the reported activity change, negative = cytotoxicity of N#CCc1cccc(C(F)(F)F)c1 is ____.
inactive

Param item = CC(=O)/C=C/C1C(C)=CCCC1(C)C (centres undefined) ; retrieve measured activity change, negative = cytotoxicity.
inactive

Fill in: activity change, negative = cytotoxicity of CC(=O)CC(=O)c1ccccc1 is ___
inactive

Item C=C(C)C(=O)OC(C)C has what recorded activity change, negative = cytotoxicity?
inactive

// activity change, negative = cytotoxicity lookup, key: Oc1ccc(C(O)CNCCCCCCNCC(O)c2ccc(O)c(O)c2)cc1O (centres undefined)
inactive

What value of activity change, negative = cytotoxicity has been reported for the following molecule? O=C(O)C(c1ccc(Cl)cc1)c1ccc(Cl)cc1
inactive

Report activity change, negative = cytotoxicity for Cc1ccc2c(ccc3ccccc32)c1 please.
inactive

Need activity change, negative = cytotoxicity, item Cc1ccc(C(C)c2ccc(C)c(C)c2)cc1C
inactive

For Oc1ccc2c(c1)OCO2 , what is its reported activity change, negative = cytotoxicity?
inactive
